Assay: Pharmacokinetics and metabolism of TAC in mice
Assay type: in vivo, C57/BL6 mice
Conditions: female, C57/BL6, mouse, plasma, iv; ACT 25 mg/kg i.v., analyte ACT, terminal phase
metric.name: half-life (h)
Number only, in h; omit the unit.

Need half-life, item Nc1ncn([C@@H]2O[C@H](CO)[C@@H](O)[C@H]2O)c(=O)n1
6.8

----------
Test: Solubility at various pH
Assay type: physicochemical
Settings: pH 3; pH3
metric.name: solubility (mg/mL)
Number only, in mg/mL; omit the unit.

Need solubility, item Nc1ncn([C@@H]2O[C@H](CO)[C@@H](O)[C@H]2O)c(=O)n1
25

----------
Experiment: Solubility at various pH
Type: physicochemical
Conditions: pH 7; pH7
Description: The solubility of TAC in comparison to ACT was evaluated at various pH. TAC and ACT were equally soluble at pH1 (40 mg/mL) and pH3 (25 mg/mL), while TAC was more soluble than ACT at pH5 (30 mg/mL versus 15 mg/mL) and pH7 (30 mg/mL versus 10 mg/mL). […] At pH 1, we observed a moderate hydrolysis of TAC (26%) to the mono- and diesters in the first 3 hours of incubation increasing to 60% after 6 hrs. However, after 24, 99% of TAC was hydrolyzed, including 46% to the parent compound, ACT.
metric.name: solubility
Please state the number and follow it with the unit.

Need solubility, item Nc1ncn([C@@H]2O[C@H](CO)[C@@H](O)[C@H]2O)c(=O)n1
10000 µg/mL

----------
Experiment: Pharmacokinetics and metabolism of TAC in mice
Type: in vivo, C57/BL6 mice
Details: female, C57/BL6, mouse, plasma, iv; ACT 25 mg/kg i.v., analyte ACT, estimated peak concentration
metric.name: C0 (µM)
Number only, in µM; omit the unit.

Need C0, item Nc1ncn([C@@H]2O[C@H](CO)[C@@H](O)[C@H]2O)c(=O)n1
212

----------
Test: Solubility at various pH
Format: physicochemical
Conditions: pH 1; pH1
metric.name: solubility (mg/mL)
Number only, in mg/mL; omit the unit.

Need solubility, item Nc1ncn([C@@H]2O[C@H](CO)[C@@H](O)[C@H]2O)c(=O)n1 [ACT, 5-azacitidine]
40

----------
Test: LogP determination, shake-flask water/octanol
Format: physicochemical
Conditions: un-ionized, read-out: experimental LogP
metric.name: logP
Answer using only a numeral; do not append any unit.

Need logP, item Nc1ncn([C@@H]2O[C@H](CO)[C@@H](O)[C@H]2O)c(=O)n1
-2.32

----------
Test: Pharmacokinetics and metabolism of TAC in mice
Format: in vivo, C57/BL6 mice
Conditions: female, C57/BL6, mouse, plasma, iv; ACT 25 mg/kg i.v., analyte ACT
metric.name: MRT last (h)
Number only, in h; omit the unit.

Need MRT last, item Nc1ncn([C@@H]2O[C@H](CO)[C@@H](O)[C@H]2O)c(=O)n1 [ACT, 5-azacitidine]
1.1

----------
Test: Pharmacokinetics and metabolism of TAC in mice
Assay type: in vivo, C57/BL6 mice
Details: female, C57/BL6, mouse, plasma, iv; ACT 25 mg/kg i.v., analyte ACT
metric.name: Cmax (µM)
Number only, in µM; omit the unit.

Need Cmax, item Nc1ncn([C@@H]2O[C@H](CO)[C@@H](O)[C@H]2O)c(=O)n1
81.1

----------
Assay: Pharmacokinetics and metabolism of TAC in mice
Assay type: in vivo, C57/BL6 mice
Conditions: female, C57/BL6, mouse, plasma, iv; ACT 25 mg/kg i.v., analyte ACT; mean (standard error)
metric.name: AUC(0-t) (µM·h)
Number only, in µM·h; omit the unit.

Need AUC(0-t), item Nc1ncn([C@@H]2O[C@H](CO)[C@@H](O)[C@H]2O)c(=O)n1
126
